All figures here come from paper PMC3708311.

TEST_TARGET: ROCK-II (Homo sapiens)
Sequence (O75116 whole entry, species assumed): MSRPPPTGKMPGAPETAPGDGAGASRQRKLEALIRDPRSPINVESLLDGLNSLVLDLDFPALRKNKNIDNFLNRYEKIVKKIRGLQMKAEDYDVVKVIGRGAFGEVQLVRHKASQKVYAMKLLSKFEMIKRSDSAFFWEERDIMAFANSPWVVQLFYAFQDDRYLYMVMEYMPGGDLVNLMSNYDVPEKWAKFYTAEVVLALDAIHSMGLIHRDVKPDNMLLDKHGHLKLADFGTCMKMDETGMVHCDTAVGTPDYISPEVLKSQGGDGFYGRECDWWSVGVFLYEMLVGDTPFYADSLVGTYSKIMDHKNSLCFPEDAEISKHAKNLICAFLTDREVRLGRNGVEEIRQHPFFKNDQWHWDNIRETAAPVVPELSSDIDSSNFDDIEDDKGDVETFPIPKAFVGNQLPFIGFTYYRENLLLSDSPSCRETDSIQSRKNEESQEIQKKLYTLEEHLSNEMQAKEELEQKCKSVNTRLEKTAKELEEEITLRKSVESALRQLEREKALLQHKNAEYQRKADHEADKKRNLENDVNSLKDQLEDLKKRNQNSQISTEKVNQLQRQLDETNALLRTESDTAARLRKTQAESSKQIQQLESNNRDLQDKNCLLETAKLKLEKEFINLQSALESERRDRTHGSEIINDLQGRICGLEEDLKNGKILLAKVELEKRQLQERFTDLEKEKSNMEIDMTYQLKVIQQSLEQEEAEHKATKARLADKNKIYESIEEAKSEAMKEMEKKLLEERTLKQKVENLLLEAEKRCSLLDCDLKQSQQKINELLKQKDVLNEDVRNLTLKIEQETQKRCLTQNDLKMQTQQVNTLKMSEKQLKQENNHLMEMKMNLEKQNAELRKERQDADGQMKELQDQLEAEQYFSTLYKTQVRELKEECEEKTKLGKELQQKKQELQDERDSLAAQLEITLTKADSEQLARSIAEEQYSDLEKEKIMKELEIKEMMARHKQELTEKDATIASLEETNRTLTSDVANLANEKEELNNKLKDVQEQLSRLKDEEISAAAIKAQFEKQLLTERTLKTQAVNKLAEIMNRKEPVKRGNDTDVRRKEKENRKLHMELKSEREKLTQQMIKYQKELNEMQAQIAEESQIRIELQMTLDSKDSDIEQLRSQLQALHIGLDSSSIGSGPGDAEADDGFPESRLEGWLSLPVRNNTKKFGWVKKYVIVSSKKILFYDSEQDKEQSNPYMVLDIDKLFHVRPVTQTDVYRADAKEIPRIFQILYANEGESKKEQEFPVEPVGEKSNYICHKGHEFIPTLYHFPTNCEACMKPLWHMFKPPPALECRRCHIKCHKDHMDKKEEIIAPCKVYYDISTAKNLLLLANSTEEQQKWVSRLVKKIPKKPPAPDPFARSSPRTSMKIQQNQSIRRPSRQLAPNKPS
MEASURED_PROPERTY: IC50

Exam item: Checklist item: IC50 tested on ROCK-II (Homo sapiens), entry CN(C)CCOc1cc(-c2cn[nH]c2)ccc1NC(=O)C1COc2ccccc2O1 (stereo not shown) , value?
Marked response: ~3 nM

----------
TEST_TARGET: adrenergic receptor α1a (Homo sapiens)
Sequence (P35348 whole entry): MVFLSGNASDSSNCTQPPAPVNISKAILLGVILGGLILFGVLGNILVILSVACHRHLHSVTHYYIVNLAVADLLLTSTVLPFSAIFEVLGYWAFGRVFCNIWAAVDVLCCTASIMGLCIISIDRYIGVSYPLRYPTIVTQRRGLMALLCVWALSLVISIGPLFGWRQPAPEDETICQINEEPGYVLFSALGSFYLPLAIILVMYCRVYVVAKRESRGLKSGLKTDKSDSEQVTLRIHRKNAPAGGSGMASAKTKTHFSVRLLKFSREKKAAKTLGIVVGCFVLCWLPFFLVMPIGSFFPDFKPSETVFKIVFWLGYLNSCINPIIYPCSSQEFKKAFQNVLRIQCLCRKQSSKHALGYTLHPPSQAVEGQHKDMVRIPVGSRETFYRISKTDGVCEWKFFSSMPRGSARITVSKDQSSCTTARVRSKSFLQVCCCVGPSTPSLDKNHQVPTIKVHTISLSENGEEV
MEASURED_PROPERTY: IC50

Exam item: Query (molecule): CN(C)CCOc1cc(-c2cn[nH]c2)ccc1NC(=O)C1COc2ccccc2O1 (stereo not shown) ; field requested: IC50
Marked response: ~1000 nM

----------
TEST_TARGET: adrenergic receptor α1b (Homo sapiens)
Sequence (P35368 1-520): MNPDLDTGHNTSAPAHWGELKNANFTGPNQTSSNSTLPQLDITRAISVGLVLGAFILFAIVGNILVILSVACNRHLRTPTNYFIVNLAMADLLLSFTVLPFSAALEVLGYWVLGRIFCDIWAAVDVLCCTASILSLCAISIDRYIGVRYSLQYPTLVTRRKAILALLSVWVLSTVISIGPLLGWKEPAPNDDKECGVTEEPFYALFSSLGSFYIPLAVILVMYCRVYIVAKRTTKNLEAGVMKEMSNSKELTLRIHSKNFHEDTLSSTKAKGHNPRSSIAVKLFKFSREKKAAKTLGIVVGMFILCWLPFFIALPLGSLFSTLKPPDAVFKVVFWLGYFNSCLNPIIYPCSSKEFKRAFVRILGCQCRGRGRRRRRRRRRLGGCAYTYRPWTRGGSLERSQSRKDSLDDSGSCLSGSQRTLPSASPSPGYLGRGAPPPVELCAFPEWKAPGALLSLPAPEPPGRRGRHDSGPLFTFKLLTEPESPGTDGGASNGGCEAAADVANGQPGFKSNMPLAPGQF
MEASURED_PROPERTY: IC50

Exam item: Param item = CN(C)CCOc1cc(-c2cn[nH]c2)ccc1NC(=O)C1COc2ccccc2O1 (stereo not shown) ; retrieve measured IC50.
Marked response: ~1 µM
